The entries below are paired with their reported α4β7 cell (Hu) IC50.
# STUDY TARGET: α4β7 integrin on human cells (human, UniProt P13612 34-1032; P26010 20-798)
# ASSAY METHOD TEXT: cell-based or functional assay
Bridge positions count the residues as written; N and C are the ends. Square brackets hold non-standard residues; d marks the D form. Phe(4-tBu) = CC(C)(C)c1ccc(C[C@H](N)C(=O)O)cc1; 1Nal = N[C@@H](Cc1cccc2ccccc12)C(=O)O; 2Nal = N[C@@H](Cc1ccc2ccccc2c1)C(=O)O; NMeR = CN[C@@H](CCCNC(=N)N)C(=O)O; β3hE = N[C@@H](CCC(=O)O)CC(=O)O; Pen = CC(C)(S)[C@H](N)C(=O)O

Before answering, review these 3 worked examples.
binder="Ac-[Pen][NMeR]SDTL[Pen][2Nal][dE][dK]-NH2 (disulfide 1-7 (inferred); also: homodimer via DIG linker) [SEQ ID NO 29]" result="> 0.01 µM"
binder="Ac-[Pen][NMeR]SDIL[Pen][Phe(4-tBu)][β3hE][dK]-NH2 (disulfide 1-7 (inferred); also: homodimer via IDA) [SEQ ID NO 186]" result="> 0.1 µM"
binder="Ac-[Pen][NMeR]SDTL[Pen][1Nal][dT][dK]-NH2 (disulfide 1-7 (inferred); also: homodimer via DIG) [SEQ ID NO 116]" result="> 0.05 µM"

Request: What α4β7 cell (Hu) IC50 value was documented for this binder, Ac-[Pen][NMeR]SDTL[Pen]HE[dK]-NH2 (disulfide 1-7 (inferred); also: homodimer via DIG) [SEQ ID NO 25] ?
Response: > 0.01 µM
